Target: YU2_(gp140) (foldon trimer) (HIV-1 (strain YU2))

- Binder: "561_10_07 (antibody, V domains shown) VH: QGRFFQSGAEVKRPGASVRISCRADDDPYTDDDTFTKYWTHWIRQAPGQRPEWLGVISPHFARPIYSYKFRDRLTLTRDSSLTAVYLELQGLQPDDSGIYYCARDPFGDRAPHYNYHMDVWGGGTAVIVSS VL: EVVLTQSPAILSVSPGDRVILSCRASEGLDPTHLAWYRFKRGQIPTLVIFGTSNRARGTPDRFSGSGSEADFTLTITRVEPEDFATYYCQRYGGTPITFGGGTTLDKK"
  binding result: "binds"
- Binder: "561_01_33 (antibody, V domains shown) VH: QGRLFQSGTEVKRPGASVKISCRADDDPYTDDDTFTKYYTHWIRQAPGQRPEWLGVISPHFARPIYSYKFRDRLTLTRDSSLTAVYFELRGLQPDDTGIYFCARDPFGDMYPHYNYHMDVWGGGTTVIVSA VL: EVVLTQSPAILSVSPGDRVILSCKASEGLSSSDLAWYRFKGGQIPTLVIFGTSNRARGTPDRFSGSGSGTDFTLTINRVQPEDFATYYCQRYGGTPITFGGGTTLDKK"
  binding result: "binds"
- Binder: "561_03_78 (antibody, V domains shown) VH: QLVQSGGGVRRPGASVKISCETPEYTFTKYWLHWLRQAPGRGLEWMGVVSPHGGRPMFAFEFRDRLTLTRDIHTTTHYMELGGLTSDDTAVYYCARDPFGETFRGHDQPYQMDVWGGGTTIVVSS VL: EPVLTQSPGTLSLSPGERATLSCRARQGFSADHVAWFQKKPGRPPRLLIFEASRRASGTPERFSGSGSGPEYTLTITRVEPEDFAVYYCQSYGSITPLVFGGGTRVDVK"
  binding result: "binds"

Origin of measurements: paper PMC7042716
